Test Target: human GPC3 (glypican 3), full length, on cells (human) (UniProt P51654)
Sequence (P51654 25-554 limits assumed): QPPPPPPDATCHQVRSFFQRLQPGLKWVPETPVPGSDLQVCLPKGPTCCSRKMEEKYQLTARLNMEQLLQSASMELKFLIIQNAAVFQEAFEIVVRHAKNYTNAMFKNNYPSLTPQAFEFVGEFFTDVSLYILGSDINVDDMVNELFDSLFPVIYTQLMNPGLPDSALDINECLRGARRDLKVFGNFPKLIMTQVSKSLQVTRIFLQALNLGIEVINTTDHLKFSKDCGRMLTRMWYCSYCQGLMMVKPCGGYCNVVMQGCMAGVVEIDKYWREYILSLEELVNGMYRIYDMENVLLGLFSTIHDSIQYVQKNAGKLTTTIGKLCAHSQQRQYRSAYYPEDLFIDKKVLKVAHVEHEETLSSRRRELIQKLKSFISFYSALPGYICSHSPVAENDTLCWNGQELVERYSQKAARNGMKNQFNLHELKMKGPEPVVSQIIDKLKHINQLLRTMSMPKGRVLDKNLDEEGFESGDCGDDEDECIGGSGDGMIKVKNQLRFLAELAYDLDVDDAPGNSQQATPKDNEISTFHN
Test Name: cell-based or functional assay
Quantity Name: % cytolysis of Hep3B at 164h, xCELLigence, 500 CAR T cells, Donor 1

{"columns": ["Binder", "Data Value"],
 "data": [
  ["hmAb1-5 CAR (protein, part only; not given: hinge, transmembrane and signaling domains, part only) chain, part: QVQLVQSGAEVKKPGASVKVSCKTSGYTFTDYYIHWVRQAPGQGLEWIGEIYPGSGNTYYAQKFQGRATLTADTSTSTAYMEFSSLRSEDTAVYYCARGNDYDAWFVYWGQGTLVTVSSGSTSGSGKPGSGEGSTKGDIVMTQSPDSLAVSLGERVTMNCKSSQSLLNSGTRKNYLAWYQQKPGQPPKLLIYWASIRESGVPDRFSGSGSGTDFTLTISSVQAEDVAVYYCKQSYSLYTFGQGTKLEIK", "99.3%"],
  ["hmAb1-1 CAR (protein, part only; not given: hinge, transmembrane and signaling domains, part only) chain, part: QVQLVQSGAEVKKPGASVKVSCKTSGYTFTDYYIHWVRQAPGQGLEWMGEIYPGSGNTYYAQKFQGRVTMTADTSTSTAYMELSSLRSEDTAVYYCARGNDYDAWFVYWGQGTLVTVSSGSTSGSGKPGSGEGSTKGDIVMTQSPDSLAVSLGERVTMNCKSSQSLLNSGTRKNYLAWYQQKPGQPPKLLIYWASIRESGVPDRFSGSGSGTDFTLTISSVQAEDVAVYYCKQSYSLYTFGQGTKLEIK", "96.4%"],
  ["hmAb1-4 CAR (protein, part only; not given: hinge, transmembrane and signaling domains, part only) chain, part: QVQLVQSGAEVKKPGASVKVSCKTSGYTFTDYYIHWVRQAPGQGLEWIGEIYPGSGNTYYAQKFQGRATLTADTSTSTAYMEFSSLRSEDTAVYYCARGNDYDAWFVYWGQGTLVTVSSGSTSGSGKPGSGEGSTKGDIVMTQSPDSLAVSLGERATINCKSSQSLLNSGTRKNYLAWYQQKPGQPPKLLIYWASIRESGVPDRFSGSGSGTDFTLTISSLQAEDVAVYYCKQSYSLYTFGQGTKLEIK", "94.9%"],
  ["hmAb1-2 CAR (protein, part only; not given: hinge, transmembrane and signaling domains, part only) chain, part: QVQLVQSGAEVKKPGASVKVSCKASGYTFTDYYIHWVRQAPGQGLEWMGEIYPGSGNTYYAQKFQGRVTMTRDTSTSTVYMELSSLRSEDTAVYYCARGNDYDAWFVYWGQGTLVTVSSGSTSGSGKPGSGEGSTKGDIVMTQSPDSLAVSLGERATINCKSSQSLLNSGTRKNYLAWYQQKPGQPPKLLIYWASIRESGVPDRFSGSGSGTDFTLTISSLQAEDVAVYYCKQSYSLYTFGQGTKLEIK", "95.7%"]
]}
